- measurement-target: human Gal-3 (hGal-3) (Homo sapiens (Human), UniProt P17931)
- Sequence (P17931 whole entry): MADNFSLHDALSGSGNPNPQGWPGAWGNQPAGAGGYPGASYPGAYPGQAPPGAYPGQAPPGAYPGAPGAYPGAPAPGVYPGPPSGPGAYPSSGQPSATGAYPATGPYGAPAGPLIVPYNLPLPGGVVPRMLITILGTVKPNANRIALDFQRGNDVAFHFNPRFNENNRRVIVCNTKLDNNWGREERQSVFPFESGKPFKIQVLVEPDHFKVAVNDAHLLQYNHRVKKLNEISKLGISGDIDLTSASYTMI
value-type: IC50 (nM)

COc1cc(-c2cn([C@H]3[C@@H](O)[C@@H](CO)O[C@@H](C(=O)N(c4cc(Cl)cc(Cl)c4)[C@H]4CCC[C@@H]4O)[C@@H]3OC)nn2)cc(F)c1F [Example 1.3.2] | 29.5

(a) CO[C@@H]1[C@@H](n2cc(-c3cc(F)c(Cl)c(F)c3)nn2)[C@@H](O)[C@@H](CO)O[C@H]1C(=O)N(c1cc(Cl)cc(C#N)c1)[C@@H]1CC[C@H]1O [Example 2.5.4R]
(b) CO[C@@H]1[C@@H](n2cc(-c3cc(F)c(C)c(F)c3)nn2)[C@@H](O)[C@@H](CO)O[C@H]1C(=O)N(c1cc(Cl)cc(Cl)c1)[C@@H]1CC[C@H]1O [Example 2.4.2R]
(c) COc1cc(C#N)cc(N(C(=O)[C@@H]2O[C@H](CO)[C@H](O)[C@H](n3cc(-c4cc(F)cc(Br)c4)nn3)[C@H]2OC)[C@@H]2CCC[C@H]2O)c1 [Example 1.10.9R]
Ascending by IC50, please. Give the labels in the order specified.
b, a, c
(b: 134 nM, a: 193 nM, c: 1200 nM)

* * *

The reader will find pIC50 measurements below, all made with human Gal-3 (hGal-3) (Homo sapiens (Human)).
pIC50: −log10 of the molar value.
value-type: pIC50

Example compounds with recorded pIC50:
CO[C@@H]1[C@@H](n2cc(-c3cc(F)c(F)c(F)c3)nn2)[C@@H](O)[C@@H](CO)O[C@H]1C(=O)N(c1cc(C)cc(Br)c1)[C@@H]1CC[C@H]1O [Example 2.1.12R] | 6.66
CO[C@@H]1[C@@H](n2cc(-c3cc(F)c(F)c(F)c3)nn2)[C@@H](O)[C@@H](CO)O[C@H]1C(=O)N(c1cc(Cl)cc(Cl)c1)[C@@H]1CCC[C@H]1O | 6.98
COc1cc(-c2cn([C@H]3[C@@H](O)[C@@H](CO)O[C@@H](C(=O)N(c4cc(C)cc(Br)c4)[C@@H]4CC[C@H]4O)[C@@H]3OC)nn2)cc(F)c1F [Example 2.3.12R] | 6.51
CO[C@@H]1[C@@H](n2cc(-c3cc(F)c(F)c(F)c3)nn2)[C@@H](O)[C@@H](CO)O[C@H]1C(=O)N(c1cccc(I)c1)[C@H]1CCC[C@@H]1O | 7.37

(I) COc1cc(-c2cn([C@H]3[C@@H](O)[C@@H](CO)O[C@@H](C(=O)N(c4cc(Cl)cc(Cl)c4)[C@@H]4CC[C@H]4O)[C@@H]3OC)nn2)cc(F)c1F
(II) CO[C@@H]1[C@@H](n2cc(-c3ccc(Cl)c(F)c3F)nn2)[C@@H](O)[C@@H](CO)O[C@H]1C(=O)N(c1cc(Br)cc(C#N)c1)[C@@H]1CCC[C@H]1O
I'd appreciate it if you could identify which of I and II has the greater pIC50. Select an item and report its label.
II
(II: 7.59, I: 6.72)

* * *

The reader will find IC50 measurements below, all made with human Gal-3 (hGal-3) (Homo sapiens (Human), UniProt P17931).
value-type: IC50 (nM)

(A) COc1cc(-c2cn([C@H]3[C@@H](O)[C@@H](CO)O[C@@H](C(=O)N(c4cc(C)cc(Br)c4)[C@H]4CC[C@@H]4O)[C@@H]3OC)nn2)cc(F)c1F
(B) CO[C@@H]1[C@@H](n2cc(-c3ccc(C#N)c(F)c3)nn2)[C@@H](O)[C@@H](CO)O[C@H]1C(=O)N(c1cc(Br)cc(C#N)c1)[C@@H]1CC[C@H]1O
(C) CO[C@@H]1[C@@H](n2cc(-c3cc(F)c(Cl)c(F)c3)nn2)[C@@H](O)[C@@H](CO)O[C@H]1C(=O)N(c1cc(Br)cc(C#N)c1)[C@H]1CCC[C@@H]1O
(D) CO[C@@H]1[C@@H](n2cc(-c3ccc(Cl)c(Cl)c3)nn2)[C@@H](O)[C@@H](CO)O[C@H]1C(=O)N(c1cc(Cl)cc(C#N)c1)[C@@H]1CCC[C@H]1O
Place the items in sequence of falling IC50. Give the labels in the order specified.
B, D, A, C

(A) CO[C@@H]1[C@@H](n2cc(-c3cc(F)c(F)c(F)c3)nn2)[C@@H](O)[C@@H](CO)O[C@H]1C(=O)N(c1cc(Br)cc(Br)c1)[C@@H]1CCC[C@H]1O [Example 1.1.11R]
(B) CO[C@@H]1[C@@H](n2cc(-c3ccc(Br)c(F)c3F)nn2)[C@@H](O)[C@@H](CO)O[C@H]1C(=O)N(c1cc(Cl)cc(Cl)c1)[C@H]1CCC[C@@H]1O
Smaller IC50 value, A vs B ? Select an item and report its label.
B

* * *

- measurement-target: human Gal-3 (hGal-3) (Homo sapiens (Human))
value-type: IC50 (nM)

Example compounds with recorded IC50:
CO[C@@H]1[C@@H](n2cc(-c3cc(F)c(F)c(F)c3)nn2)[C@@H](O)[C@@H](CO)O[C@H]1C(=O)N(c1cc(C)cc(Br)c1)[C@@H]1CCC[C@H]1O [Example 1.1.12R] | 348
CO[C@@H]1[C@@H](n2cc(-c3ccc(C)c(F)c3F)nn2)[C@@H](O)[C@@H](CO)O[C@H]1C(=O)N(c1cc(Br)cc(C#N)c1)[C@@H]1CC[C@H]1O | 98.7
CO[C@@H]1[C@@H](n2cc(-c3cc(F)c(F)c(Cl)c3)nn2)[C@@H](O)[C@@H](CO)O[C@H]1C(=O)N(c1cc(Br)cc(C#N)c1)[C@H]1CC[C@@H]1O | 80.3
CO[C@@H]1[C@@H](n2cc(-c3cc(F)c(C)c(F)c3)nn2)[C@@H](O)[C@@H](CO)O[C@H]1C(=O)N(c1cc(Cl)cc(C#N)c1)[C@@H]1CCC[C@H]1O | 74.8
CO[C@@H]1[C@@H](n2cc(-c3cc(F)c(F)c(F)c3)nn2)[C@@H](O)[C@@H](CO)O[C@H]1C(=O)N(c1cc(Cl)cc(Cl)c1)[C@H]1CC[C@@H]1O | 51.8

(a) CO[C@@H]1[C@@H](n2cc(-c3cc(F)cc(Br)c3)nn2)[C@@H](O)[C@@H](CO)O[C@H]1C(=O)N(c1cc(C)cc(C#N)c1)[C@H]1CC[C@@H]1O
(b) CC(=O)O[C@@H]1[C@@H](n2cc(-c3cc(F)c(F)c(F)c3)nn2)[C@@H](O)[C@@H](CO)O[C@H]1C(=O)N(c1cc(Cl)cc(C#N)c1)[C@@H]1CC[C@H]1O
(c) CO[C@@H]1[C@@H](n2cc(-c3cc(F)c(F)c(F)c3)nn2)[C@@H](O)[C@@H](CO)O[C@H]1C(=O)N(c1cccc(Cl)c1)[C@@H]1CC[C@H]1O
(d) N#Cc1cc(Cl)cc(N(C(=O)[C@@H]2O[C@H](CO)[C@H](O)[C@H](n3cc(-c4cc(F)c(F)c(F)c4)nn3)[C@H]2O)[C@H]2CC[C@@H]2O)c1
(e) CO[C@@H]1[C@@H](n2cc(-c3ccc(C)c(F)c3)nn2)[C@@H](O)[C@@H](CO)O[C@H]1C(=O)N(c1cc(Br)cc(C#N)c1)[C@H]1CCC[C@@H]1O
Arrange these compounds by their IC50, starting with the largest number. Give the labels in the order specified.
c, a, b, d, e
(c: 4400 nM, a: 232 nM, b: 80.6 nM, d: 33.8 nM, e: 17.1 nM)

Taken from patent US20230348442A1.
